test-system: Lysosomal alpha-glucosidase (Homo sapiens) (UniProt P10253)
protocol-summary: qHTS Assay for Activators of Human alpha-Glucosidase as a Potential Chaperone Treatment of Pompe Disease; further: potency means the concentration at half of the fitted maximal effect; nearly all actives have a fitted effect of over 80% in size
run-parameters: purified enzyme, 4-MU-alpha-glucoside fluorescence, 20 min; series mostly up to 76.9 µM
Among all 200,000 compounds or so, about 720 (0.36%) were called active. Inconclusive results (about 8%) are left out. The list shows a part of the results.
value-kind: Potency

I'm curious: which Potency was measured for CC1CN(S(=O)(=O)c2cccc(-c3cn4cccnc4n3)c2)CC(C)O1 (configuration not stated) tested on Lysosomal alpha-glucosidase (Homo sapiens) (UniProt P10253)?
35.5 µM (active)

I'm curious: which Potency was measured for CCN(CC)Cc1c(O)c(Cl)cc2c(C)c(C)c(=O)oc12 tested on Lysosomal alpha-glucosidase (Homo sapiens) (UniProt P10253)?
35.5 µM (active)

I'm curious: which Potency was measured for COC(=O)c1nc2nc(-c3cccs3)cc(C(F)(F)F)n2n1 tested on Lysosomal alpha-glucosidase (Homo sapiens) (UniProt P10253)?
35.5 µM (active)

I'm curious: which Potency was measured for CCN1c2ccccc2-c2nc3ccccc3n2C1c1ccco1 (configuration not stated) tested on Lysosomal alpha-glucosidase (Homo sapiens) (UniProt P10253)?
35.5 µM (active)

I'm curious: which Potency was measured for Cc1ccc(-c2cc(-c3ccccc3)c(C#N)c(N)n2)o1 tested on Lysosomal alpha-glucosidase (Homo sapiens) (UniProt P10253)?
35.5 µM (active)

Further cases:
I'm curious: which Potency was measured for O=C(Cc1cc(=O)oc2cc(O)ccc12)NCC1CCC(C(=O)O)CC1 (configuration not stated) tested on Lysosomal alpha-glucosidase (Homo sapiens) (UniProt P10253)?
35.5 µM (active)

I'm curious: which Potency was measured for Cc1ccc2nc(-c3ccc(NS(=O)(=O)c4ccc(F)cc4)cc3)sc2c1 tested on Lysosomal alpha-glucosidase (Homo sapiens) (UniProt P10253)?
35.5 µM (active)
